Listed compounds paired with reported IC50
Biological target: Adenosine A2a (ADORA2A) receptor (Homo sapiens (Human))
Sequence (P29274 whole entry): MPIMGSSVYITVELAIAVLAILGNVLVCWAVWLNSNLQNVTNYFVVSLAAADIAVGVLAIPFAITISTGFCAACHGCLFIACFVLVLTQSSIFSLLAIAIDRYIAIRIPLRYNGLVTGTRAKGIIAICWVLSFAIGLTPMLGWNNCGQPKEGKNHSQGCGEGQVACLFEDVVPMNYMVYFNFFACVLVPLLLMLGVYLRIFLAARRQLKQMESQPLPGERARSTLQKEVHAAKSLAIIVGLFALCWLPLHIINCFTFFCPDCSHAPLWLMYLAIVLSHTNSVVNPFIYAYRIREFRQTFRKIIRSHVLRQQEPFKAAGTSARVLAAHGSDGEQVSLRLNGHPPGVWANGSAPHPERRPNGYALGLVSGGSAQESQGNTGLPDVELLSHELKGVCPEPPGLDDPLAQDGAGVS
PROPERTY MEASURED: IC50

GIVEN SMILES | SYSTEM TESTED | OBS VALUE
Cc1nc2cc(NC(=O)C3CC3)nc(-c3ccc(C)o3)n2n1 | Adenosine A2a (ADORA2A) receptor (Homo sapiens (Human)) | < 10 nM
CC(=O)Nc1cc2nc(C)nn2c(-c2ccc(C)o2)n1 | Adenosine A2a (ADORA2A) receptor (Homo sapiens (Human)) | < 10 nM
Cc1ccc(-c2nc(NC(=O)C3CC3)cc3nc(C4CCCC4)nn23)o1 | Adenosine A2a (ADORA2A) receptor (Homo sapiens (Human)) | < 10 nM
COc1ccc(-c2nc(N)cc3nc(C)nn23)cc1 | Adenosine A2a (ADORA2A) receptor (Homo sapiens (Human)) | 100 to 1000 nM
Cc1nc2c(-c3ccc(C)o3)nc(N)cn2n1 | Adenosine A2a (ADORA2A) receptor (Homo sapiens (Human)) | < 10 nM
CC(=O)Nc1cn2cc(C)nc2c(-c2ccco2)n1 | Adenosine A2a (ADORA2A) receptor (Homo sapiens (Human)) | 10 to 100 nM
Cc1nc2c(F)c(NC(=O)C3CC3)nc(-c3ccc(C)o3)n2n1 | Adenosine A2a (ADORA2A) receptor (Homo sapiens (Human)) | < 10 nM
Cc1cn2cc(NC(=O)C3CC3)nc(-c3ccco3)c2n1 | Adenosine A2a (ADORA2A) receptor (Homo sapiens (Human)) | < 10 nM
Cc1nc2cc(NC(=O)C3CC3)nc(-c3ccc(C(F)(F)F)o3)n2n1 | Adenosine A2a (ADORA2A) receptor (Homo sapiens (Human)) | < 10 nM
CC(=O)c1cccc(-c2nc(NC(=O)C3CC3)cc3nc(C)nn23)c1 | Adenosine A2a (ADORA2A) receptor (Homo sapiens (Human)) | 100 to 1000 nM
Cc1cccc(-c2nc(N)c(Cl)c3nc(C)nn23)n1 | Adenosine A2a (ADORA2A) receptor (Homo sapiens (Human)) | 10 to 100 nM
Cc1nc2c(Cl)c(N)nc(-c3ccc(C)s3)n2n1 | Adenosine A2a (ADORA2A) receptor (Homo sapiens (Human)) | < 10 nM
COC(=O)Nc1cn2cc(C)nc2c(-c2ccco2)n1 | Adenosine A2a (ADORA2A) receptor (Homo sapiens (Human)) | 10 to 100 nM
Cc1ccc(-c2nc(N)cn3cc(C(F)(F)F)nc23)o1 | Adenosine A2a (ADORA2A) receptor (Homo sapiens (Human)) | 10 to 100 nM
CC(=O)Nc1cn2nc(C)nc2c(-c2ccco2)n1 | Adenosine A2a (ADORA2A) receptor (Homo sapiens (Human)) | < 10 nM
Cc1ccc(-c2nc3[nH]ncc3c3nc(C(F)(F)F)nn23)o1 | Adenosine A2a (ADORA2A) receptor (Homo sapiens (Human)) | < 10 nM
Cc1ccc(-c2nc3c(c4nc(C(C)C)nn24)CC(=O)N3)o1 | Adenosine A2a (ADORA2A) receptor (Homo sapiens (Human)) | 10 to 100 nM
Cc1cc2c(nc(-c3ccc(C)o3)n3nc(C(C)C)nc23)[nH]1 | Adenosine A2a (ADORA2A) receptor (Homo sapiens (Human)) | < 10 nM
CCCNC(=O)Nc1cc2nc(C)nn2c(-c2ccco2)n1 | Adenosine A2a (ADORA2A) receptor (Homo sapiens (Human)) | 10 to 100 nM
CC(=O)Nc1cc2nc(C(F)F)nn2c(-c2ccco2)n1 | Adenosine A2a (ADORA2A) receptor (Homo sapiens (Human)) | < 10 nM
